Tested on: SK-OV-3
Test details: NCI tumour cell line growth inhibition, 48 h
Activity calls are given as the source filed them. No stated cut-off is given here; in the data, active = GI50 up to about 1.1 µM and inactive = higher.
Experimental endpoint: GI50

INSERT INTO results (compound, result) VALUES
  ('Cc1cnc2sn(-c3ccc(Oc4ccccc4)cc3)c(=O)c2c1', '25.8 µM (inactive)'),
  ('CN1CCCCC(C(O)(c2ccccc2)c2ccccc2)C1=O (centres undefined)', '> 100 µM (inactive)'),
  ('COc1cc(-c2cc(=O)c3cc4c(cc3[nH]2)OCO4)cc(OC)c1O', '> 10 µM (inactive)'),
  ('CCCCCCCCCCCCCCC(C(=O)[O-])[n+]1ccccc1 (centres undefined)', '> 100 µM (inactive)'),
  ('N=C1CSC2=NC3=C(CCC/C3=C\c3ccccc3)C(c3ccccc3)N12 (centres undefined)', '15.1 µM (inactive)'),
  ('CC(C)c1cc(C(C)C)c(B(c2ccccc2)c2ccccc2)c(C(C)C)c1Br', '> 100 µM (inactive)'),
  ('CC1OC2OC3C(OCC(O)C3O)OC(=O)[C@]34CCC(C)(C)CC3C3=CCC5[C@@]6(C)C[C@H](O)[C@H](OC7OC(CO)C(O)C(O)C7OC7OCC(OC(=O)CC(C)(O)CC(=O)OC1C(OC1OC(CO)C(O)C(O)C1O)C2O)C(O)C7O)[C@@](C)(CO)C6CC[C@@]5(C)[C@]3(C)CC4 (some centres undefined)', '12.4 µM (inactive)'),
  ('CC(=O)/C(=C/N1C(=O)CC(=O)NC1=S)C(=O)Nc1ccccc1C', '> 100 µM (inactive)'),
  ('CSc1nc(NC2CC2)c2c(n1)Sc1nc3ccccc3n1N=C2', '26.5 µM (inactive)');

====

System: SK-MEL-28
Test details: NCI tumour cell line growth inhibition, 48 h
Active and inactive are the calls of the source. No stated cut-off is given here; in the data, active = GI50 up to about 1.1 µM and inactive = higher.
Experimental endpoint: GI50

INSERT INTO assay_data (molecule, experimental_endpoint, result) VALUES
  ('CCOC(=O)NN(C(=O)OCC)C(=C(c1ccccc1)N1CCOCC1)N(NC(=O)OCC)C(=O)OCC', 'GI50', '> 100 µM (inactive)'),
  ('NS(=O)(=O)c1nnc(NC(=O)c2cccc([N+](=O)[O-])c2)s1', 'GI50', '> 100 µM (inactive)'),
  ('COC(=O)c1ccc(Cc2ccc(C(=O)OC)o2)o1', 'GI50', '> 378 µM (inactive)'),
  ('CC(C)CCC[C@@H](C)[C@H]1CCC2C3CC=C4C[C@@H](Oc5c6ccccc6nc6ccccc56)CCC4C3CCC21 (some centres not stated)', 'GI50', '> 50 µM (inactive)'),
  ('Cc1cc(C)n(CN(Cn2nc(C)cc2C)c2ccccc2)n1', 'GI50', '19.6 µM (inactive)'),
  ('Oc1ncnc2c1CCCN2', 'GI50', '> 100 µM (inactive)'),
  ('COc1cc(S(=O)(=O)N/N=C/c2cc(Br)c(O)c(OC)c2)c(OC)cc1NC(C)=O', 'GI50', '> 100 µM (inactive)'),
  ('COC(=O)C1=C(c2cc(OC)c(OC)c(OC)c2)OC(c2cc(OC)c(OC)c(OC)c2)C1COC(C)=O (configuration not stated)', 'GI50', '> 100 µM (inactive)'),
  ('CC(=O)N/N=C1\NC(=O)C[C@H]2[C@@H]3CC=C4C[C@@H](OC(C)=O)CC[C@]4(C)[C@H]3CC[C@]12C', 'GI50', '13.4 µM (inactive)'),
  ('COc1ccc(C2c3cc4c(cc3OC(Nc3ccccc3)C2C)OCO4)cc1 (configuration not stated)', 'GI50', '> 100 µM (inactive)'),
  ('O=c1[nH]c2ccc([N+](=O)[O-])cc2nc1/C(=N/Nc1ccccc1)C(O)c1ccco1 (configuration not stated)', 'GI50', '> 100 µM (inactive)'),
  ('CN1CCCCC(C(O)(c2ccccc2)c2ccccc2)C1=O (configuration not stated)', 'GI50', '> 100 µM (inactive)'),
  ('O=C(NNC(=O)c1ccccc1O)c1cccs1', 'GI50', '> 100 µM (inactive)'),
  ('COc1cc(C2c3cc4c(cc3OC(N3CCOCC3)C2C)OCO4)cc(OC)c1OC (configuration not stated)', 'GI50', '17.2 µM (inactive)'),
  ('Cc1[nH]nc(C(=O)N/N=C/c2ccccc2Cl)c1/N=N\N(C)C', 'GI50', '> 100 µM (inactive)'),
  ('O=C(O)CN(c1ccc(Cl)cc1)S(=O)(=O)c1ccccc1', 'GI50', '> 100 µM (inactive)'),
  ('Cc1cc(C)cc(Nc2cc(O)nc(O)n2)c1', 'GI50', '> 100 µM (inactive)'),
  ('CSC1=N/C(=C\c2ccccc2)C(=O)N1CN1CCCCC1', 'GI50', '> 100 µM (inactive)'),
  ('CN(C)c1cc[n+](-c2nc([N-]C(=O)C(F)(F)F)nc3c2ncn3C2CC(O)C(CO)O2)cc1 (configuration not stated)', 'GI50', '> 100 µM (inactive)'),
  ('CC(=O)c1cccc(Nc2c3ccccc3nc3occc23)c1', 'GI50', '2.67 µM (inactive)'),
  ('N#CC(NNC(=O)Cc1ccccc1)c1cccc(O)c1 (configuration not stated)', 'GI50', '> 100 µM (inactive)'),
  ('Cc1cc(C)n(CN(CCCCO)Cn2nc(C)cc2C)n1', 'GI50', '17.7 µM (inactive)');
